tested on: BJ; experiment: Antiproliferative activity against human BJ cells after 72 hrs by PrestoBlue colorimetric assay; assay type: cell-based
pIC50: −log10 of the molar value.
Measure: pIC50

[[record]]
cpd_smiles = "Cc1cn(-c2cc(NC(=O)c3ccc(C)c(Nc4nccc(-c5cccnc5)n4)c3)cc(C(F)(F)F)c2)cn1"
measure = "pIC50"
observed = 4.89

[[record]]
cpd_smiles = "COCn1c(CC(COCc2ccccc2)COCc2ccccc2)c(C)c(=O)n(COC)c1=O"
measure = "pIC50"
observed = 5.28


----------
test system: MCF7; assay: Antiproliferative activity against human MCF7 cells after 72 hrs by MTT assay; format: functional, cell-based; conditions: MCF7, 72 h
pIC50: −log10 of the molar value.
Measure: pIC50

[[record]]
compound = "C[Si](C)(C)CCOCn1c(CC(O)(COCc2ccccc2)COCc2ccccc2)cc(=O)[nH]c1=O"
measure = "pIC50"
observed = "< 4.00"

[[record]]
compound = "O=c1cc(CC(O)(COCc2ccccc2)COCc2ccccc2)[nH]c(=O)[nH]1"
measure = "pIC50"
observed = "< 4.00"

[[record]]
compound = "COc1cc(CC(O)(COCc2ccccc2)COCc2ccccc2)nc(OC)n1"
measure = "pIC50"
observed = "< 4.00"

[[record]]
compound = "COc1cc(CC(COCc2ccccc2)COCc2ccccc2)nc(OC)n1"
measure = "pIC50"
observed = 6.52

[[record]]
compound = "COCn1c(CC(O)COCc2ccccc2)c(C)c(=O)[nH]c1=O (stereo not given)"
measure = "pIC50"
observed = "< 4.00"

[[record]]
compound = "COCn1c(CC(COCc2ccccc2)COCc2ccccc2)c(C)c(=O)n(COC)c1=O"
measure = "pIC50"
observed = 6.40

[[record]]
compound = "COCn1c(CC(O)(COCc2ccccc2)COCc2ccccc2)cc(=O)[nH]c1=O"
measure = "pIC50"
observed = "< 4.00"

[[record]]
compound = "Cc1c(CC(O)COCc2ccccc2)[nH]c(=O)[nH]c1=O (stereo not given)"
measure = "pIC50"
observed = "< 4.00"

[[record]]
compound = "COCn1c(CC(COCc2ccccc2)COCc2ccccc2)cc(=O)[nH]c1=O"
measure = "pIC50"
observed = "< 4.00"

[[record]]
compound = "COCn1c(CC(O)(CO)CO)cc(=O)[nH]c1=O"
measure = "pIC50"
observed = "< 4.00"

